- study.system: Mesothelin (SwissProt reference Q13421-3) (Homo sapiens, UniProt Q13421 37-622)
- experiment.notes: cell-based or functional assay
Measured IC50 (nM), HT29 meso+ cells, MTT proliferation assay, listed per entry for reference.
Response body: numeric value in nM, unit text excluded.

Known results for binders:
Example 107, conjugate of anti-mesothelin antibody MF-Ta (antibody, human IgG1, lambda, V domains shown, toxophore-linker on Cys sulfur, sites not given) VH: QVELVQSGAEVKKPGESLKISCKGSGYSFTSYWIGWVRQAPGKGLEWMGIIDPGDSRTRYSPSFQGQVTISADKSISTAYLQWSSLKASDTAMYYCARGQLYGGTYMDGWGQGTLVTVSS VL: DIALTQPASVSGSPGQSITISCTGTSSDIGGYNSVSWYQQHPGKAPKLMIYGVNNRPSGVSNRFSGSKSGNTASLTISGLQAEDEADYYCSSYDIESATPVFGGGTKLTVLG = 3
Example 101, conjugate of anti-mesothelin antibody MF-Ta (antibody, human IgG1, lambda, V domains shown, toxophore-linker on Cys sulfur, sites not given) VH: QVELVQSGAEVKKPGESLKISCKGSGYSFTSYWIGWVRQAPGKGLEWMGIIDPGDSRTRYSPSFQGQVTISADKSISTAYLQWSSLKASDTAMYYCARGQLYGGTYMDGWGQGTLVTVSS VL: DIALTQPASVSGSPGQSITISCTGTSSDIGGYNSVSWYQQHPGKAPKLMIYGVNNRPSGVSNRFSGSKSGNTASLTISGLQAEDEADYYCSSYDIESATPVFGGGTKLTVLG = 3
Example 82, conjugate of anti-mesothelin antibody MF-Ta (antibody, human IgG1, lambda, V domains shown, toxophore-linker on Cys sulfur, sites not given) VH: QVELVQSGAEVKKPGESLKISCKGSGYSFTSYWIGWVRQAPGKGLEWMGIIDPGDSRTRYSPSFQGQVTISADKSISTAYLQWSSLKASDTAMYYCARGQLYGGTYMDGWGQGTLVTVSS VL: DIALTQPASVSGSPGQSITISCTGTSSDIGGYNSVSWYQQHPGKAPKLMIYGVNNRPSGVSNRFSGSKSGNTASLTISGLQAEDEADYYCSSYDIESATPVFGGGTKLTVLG = 24
Example 65, conjugate of anti-mesothelin antibody MF-Ta (antibody, human IgG1, lambda, V domains shown, toxophore-linker on Cys sulfur, sites not given) VH: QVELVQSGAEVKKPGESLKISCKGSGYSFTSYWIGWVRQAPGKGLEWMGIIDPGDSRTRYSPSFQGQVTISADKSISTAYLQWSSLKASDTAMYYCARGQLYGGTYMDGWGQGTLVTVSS VL: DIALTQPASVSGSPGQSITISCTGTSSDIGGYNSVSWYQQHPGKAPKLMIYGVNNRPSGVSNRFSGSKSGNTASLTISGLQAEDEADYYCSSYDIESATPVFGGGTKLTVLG = 0.14
Example 62, conjugate of anti-mesothelin antibody MF-Ta (antibody, human IgG1, lambda, V domains shown, toxophore-linker on Cys sulfur, sites not given) VH: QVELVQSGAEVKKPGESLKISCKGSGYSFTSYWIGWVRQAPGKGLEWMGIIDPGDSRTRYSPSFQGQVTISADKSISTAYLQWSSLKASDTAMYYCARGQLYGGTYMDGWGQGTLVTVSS VL: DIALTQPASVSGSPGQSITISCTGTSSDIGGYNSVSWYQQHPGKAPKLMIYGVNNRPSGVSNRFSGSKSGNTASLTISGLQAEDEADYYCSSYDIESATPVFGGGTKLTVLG = 20

Item under review: Example 130, conjugate of anti-mesothelin antibody MF-Ta (antibody, human IgG1, lambda, V domains shown, toxophore-linker on Cys sulfur, sites not given) VH: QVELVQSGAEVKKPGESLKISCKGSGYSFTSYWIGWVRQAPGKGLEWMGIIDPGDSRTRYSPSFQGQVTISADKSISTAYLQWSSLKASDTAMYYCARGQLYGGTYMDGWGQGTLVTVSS VL: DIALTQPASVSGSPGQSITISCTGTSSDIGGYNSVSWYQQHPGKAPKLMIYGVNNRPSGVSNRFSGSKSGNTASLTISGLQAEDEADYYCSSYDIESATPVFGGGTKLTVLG . Reported IC50 (nM), HT29 meso+ cells, MTT proliferation assay? 0.13

Can you share its IC50 (nM), HT29 meso+ cells, MTT proliferation assay? I mean this binder: Example 144, conjugate of anti-mesothelin antibody MF-Ta (antibody, human IgG1, lambda, V domains shown, toxophore-linker on Lys NH, sites not given) VH: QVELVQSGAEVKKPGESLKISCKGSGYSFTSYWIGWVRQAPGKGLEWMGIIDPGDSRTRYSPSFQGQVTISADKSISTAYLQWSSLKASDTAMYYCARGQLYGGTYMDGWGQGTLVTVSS VL: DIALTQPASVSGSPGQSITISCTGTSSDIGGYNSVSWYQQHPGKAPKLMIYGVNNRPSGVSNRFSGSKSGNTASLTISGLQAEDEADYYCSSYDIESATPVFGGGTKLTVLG 2.7

Item Example 369, conjugate of anti-mesothelin antibody MF-Ta (antibody, human IgG1, lambda, V domains shown, toxophore-linker on Lys NH, sites not given) VH: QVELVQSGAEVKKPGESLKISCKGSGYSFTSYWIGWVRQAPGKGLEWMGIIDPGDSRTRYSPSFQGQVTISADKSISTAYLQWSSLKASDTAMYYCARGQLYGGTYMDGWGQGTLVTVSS VL: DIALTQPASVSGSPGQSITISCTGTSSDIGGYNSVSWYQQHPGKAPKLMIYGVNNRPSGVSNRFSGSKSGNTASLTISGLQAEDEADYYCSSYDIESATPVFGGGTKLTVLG has what recorded IC50 (nM), HT29 meso+ cells, MTT proliferation assay? 0.02
